Provide the reported combination Emax of each item.
- Tested on: RO82-W-1 (Thyroid Gland Carcinoma)
- runDescription: combination Emax (second highest fraction inhibited in the dose matrix, 72 h); higher = more inhibition; extreme values may be limits of the assay
Answers are plain numbers.

N#Cc1cnc(Nc2cc(NC[C@H]3CNCCO3)c(C(F)(F)F)cn2)cn1 [SRA737] + C=CCn1c(=O)c2cnc(Nc3ccc(N4CCN(C)CC4)cc3)nc2n1-c1cccc(C(C)(C)O)n1 [AZD1775] (first compound max 10 µM, partner max 1 µM): 0.116

Need combination Emax for each of these compounds.
1. CC1(C)CCC(CN2CCN(c3ccc(C(=O)NS(=O)(=O)c4ccc(NCC5CCOCC5)c([N+](=O)[O-])c4)c(Oc4cnc5[nH]ccc5c4)c3)CC2)=C(c2ccc(Cl)cc2)C1 [Venetoclax] + C=CCn1c(=O)c2cnc(Nc3ccc(N4CCN(C)CC4)cc3)nc2n1-c1cccc(C(C)(C)O)n1 [AZD1775] (first compound max 1 µM, partner max 1 µM)
2. O=C(c1cc(Cc2n[nH]c(=O)c3ccccc23)ccc1F)N1CCN(C(=O)C2CC2)CC1 [Olaparib] + Cc1c2c(nn1C)CSCc1cc(n(C)n1)CSc1cc(c3ccccc3c1)OCCCc1c(C(=O)O)n(C)c3c-2c(Cl)ccc13 [AZD5991] (first compound max 10 µM, 7x7, partner max 1 µM)

1. 0.261
2. 0.147
